The measurements presented in this section are drawn from patent US11739101B2.

# test.target: HPK1 (Homo sapiens, UniProt Q92918)
# Construct: A HiBiT tag was introduced by CRISPR on the N terminus of HPK1 in Jurkat cells; host or cells: Jurkat (ATCC TIB-152), monoclonal CRISPR HiBiT knock-in line
# Sequence (Q92918 whole entry): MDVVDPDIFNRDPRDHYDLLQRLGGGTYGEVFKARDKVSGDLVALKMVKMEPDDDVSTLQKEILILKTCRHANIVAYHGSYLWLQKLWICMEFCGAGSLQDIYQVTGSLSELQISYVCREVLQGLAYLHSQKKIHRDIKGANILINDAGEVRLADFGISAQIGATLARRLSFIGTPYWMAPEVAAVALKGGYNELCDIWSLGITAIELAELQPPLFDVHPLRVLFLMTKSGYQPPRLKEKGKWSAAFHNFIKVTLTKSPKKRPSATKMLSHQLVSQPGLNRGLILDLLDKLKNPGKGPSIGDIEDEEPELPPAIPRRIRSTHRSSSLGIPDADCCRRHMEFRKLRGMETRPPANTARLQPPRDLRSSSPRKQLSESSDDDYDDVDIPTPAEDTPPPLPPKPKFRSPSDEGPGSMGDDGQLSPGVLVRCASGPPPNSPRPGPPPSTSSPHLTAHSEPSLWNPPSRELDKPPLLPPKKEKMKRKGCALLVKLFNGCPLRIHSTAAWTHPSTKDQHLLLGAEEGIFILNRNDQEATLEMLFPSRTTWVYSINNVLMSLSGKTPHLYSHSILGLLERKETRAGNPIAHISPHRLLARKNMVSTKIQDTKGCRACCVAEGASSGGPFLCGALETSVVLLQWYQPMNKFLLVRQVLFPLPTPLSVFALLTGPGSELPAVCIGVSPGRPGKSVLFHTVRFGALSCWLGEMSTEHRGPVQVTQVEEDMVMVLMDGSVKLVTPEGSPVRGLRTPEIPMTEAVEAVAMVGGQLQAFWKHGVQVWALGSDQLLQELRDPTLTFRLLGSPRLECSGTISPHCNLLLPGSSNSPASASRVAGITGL
# procedure.details: HPK1 Cellular HiBiT Degradation Assay
# Format: cell-based
# test.conditions: HiBiT-tagged HPK1 Jurkat cells, 24 hours, 10 uM to 0.1 nM; Dmax = 100 minus lowest % HPK1 remaining vs DMSO vehicle
measured.attribute: Cellular HPK1 HiBiT: Dmax (%)

compound	test.result
Cc1cc(F)c(Nc2nc(-c3ccc4c(c3)N(C3CC(N5CCCCC5)C3)C(=O)C43CCN(C(=O)c4ccc(C(=O)N(C)C5CCC(Nc6cccc7c6C(=O)N(C6CCC(=O)NC6=O)C7=O)CC5)cc4)CC3)cc3ncn(C(C)C)c23)cc1C(=O)NC(C)C (stereo not shown)	A (A>65%)
Cc1cc(F)c(Nc2nc(-c3ccc4c(c3)N(C3CC(N5CCCCC5)C3)C(=O)C43CCN(C(=O)CCCCCCCCCC(=O)N[C@H](C(=O)N4C[C@H](O)C[C@H]4C(=O)N[C@@H](C)c4ccc(-c5scnc5C)cc4)C(C)(C)C)CC3)cc3ncn(C(C)C)c23)cc1C(=O)NC(C)C (stereo partly shown)	A (A>65%)
Cc1cc(F)c(Nc2nc(-c3ccc4c(c3)N([C@H]3C[C@@H](N5CCCCC5)C3)C(=O)C43CCN(C(=O)c4cccc(C5CCN(c6cccc7c6C(=O)N(C6CCC(=O)NC6=O)C7=O)CC5)c4)CC3)cc3ncn(C(C)C)c23)cc1C(=O)NC(C)C (stereo partly shown)	B (45%≤B≤65%)
Cc1cc(F)c(Nc2nc(-c3ccc4c(c3)N(C3CC(N5CCCCC5)C3)C(=O)C43CCN(C(=O)C4CCN(C(=O)C5CCN(c6ccc7c(c6)C(=O)N(C6CCC(=O)NC6=O)C7=O)CC5)CC4)CC3)cc3ncn(C(C)C)c23)cc1C(=O)NC(C)C (stereo not shown)	B (45%≤B≤65%)
